Value source: PubChem BioAssay (NCI)

# Tested on: DU-145 prostate
# Assay overview: NCI-60 one-dose screen, 48 h (100 = growth as untreated, 0 = no growth, -100 = all killed)
# Setup conditions: 10 µM
The panel holds about 83,000 compounds, 20% with a hit somewhere; the sample as a whole holds those more often. Active and inactive are the calls of the source. How the source made its calls: active means growth percent below 10; inactive means the rest.
Answer each item with its documented growth.

Reference set, count: 3
1) N=C(N)c1ccc(-c2ccc(-c3ccccc3)s2)s1: -93.8% (active)
2) COc1ccc(OC)c([N+](=O)[O-])c1C=O: 116% (inactive)
3) CCC1(C)OC(=O)NC1=O (stereo not drawn): 111% (inactive)

Take each entry in turn and give its growth.
1. COc1nc2c(c(=O)[nH]1)C(c1ccc(Oc3ccnc4cc(Cl)ccc34)c(OC)c1)C=C(c1cc(OC)c(OC)c(OC)c1)N2 (stereo not drawn)
2. NC1CCC(Nc2nc(NCc3ccc(-c4ccco4)nc3)c3ncn(C4CCCC4)c3n2)CC1 (stereo not drawn)
3. Cn1cnc([N+](=O)[O-])c1/C=C1\Oc2ccc(Cl)cc2C1=O
4. COc1ccc(C2CC(c3ccc(-c4ccccc4)cc3)=NN2c2ccc(S(N)(=O)=O)cc2)cc1 (stereo not drawn)
5. N#Cc1ccc(-n2cnc(NC(=O)[C@H]3CCN(C#N)C3)c2)cc1
6. COc1cc(-c2c(C#N)c(N)n3c(nc4ccccc43)c2C#N)cc(Br)c1OC

Result string:
["95.1% (inactive)", "6.46% (active)", "94.2% (inactive)", "83.2% (inactive)", "29.7% (inactive)", "39.1% (inactive)"]

Take each entry in turn and give its growth.
1. C#CCNCCCN1C(=O)c2ccc3c4c(ccc(c24)C1=O)C(=O)N(CCCNCC#C)C3=O
2. COc1cc(Cn2c(-c3ccccc3)cc3c2-c2oncc2CC3)cc(OC)c1

Result string:
1. -98.8% (active)
2. 0.266% (active)

Take each entry in turn and give its growth.
1. O=C(Nc1cccc(-c2nc3ccccc3[nH]2)c1)c1cccc(NC(=O)c2ccco2)c1
2. CCCCCCCCCCCCc1ccc(C(=O)/C=C/C(=O)O)cc1
3. Cc1cc(C)c(/C=C2\C(=O)Nc3ccc(NC(=O)CCCCCCC(=O)NO)cc32)[nH]1
4. Fc1cc(-c2ncc(-c3cc(F)c(F)c(F)c3)c(NC3CCCCCC3)n2)cc(F)c1F

Result string:
["103% (inactive)", "89.8% (inactive)", "19.3% (inactive)", "105% (inactive)"]

Take each entry in turn and give its growth.
1. CC(=O)O[C@H]1CC[C@@]2(C)[C@@H](CC[C@@H]3[C@@H]2CC[C@]2(C)C=C(C=O)C[C@@H]32)C1
2. O=[N+]([O-])c1ccc(S(=O)(=O)OCCCCOS(=O)(=O)c2ccc([N+](=O)[O-])cc2)cc1
3. COc1ccc(Cn2cc3c(c2-c2ccccc2)CC(C)(C)c2cnoc2-3)cc1

Result string:
1. 49.5% (inactive)
2. 107% (inactive)
3. 37.6% (inactive)
